Experimental Target: UniProtKB P23458
Experiment Summary: Biochemical potency on JAK1, TR-FRET LANCE Ultra kinase assay (examples 1-99)
Condition Parameters: ATP at Km (20 μM), read-out: JAK1 inhibitory activity (pIC50 class) (converted)
Procedure: The objective of this study was to assess the capability of compounds to inhibit all 4 JAK isoforms activity in a cell-free environment. Assay for JAK 1, JAK 2, JAK 3 and TYK2 were performed by Time-resolved fluorescence resonance energy transfer (TR-FRET) technology. It consists in the interaction of two labelled binding partners detected by the energy transfer from an excited donor to an acceptor dye and measurement of light emission by the acceptor dye. LANCE Ultra kinase assay was used. […]
IC50 overview

Below: 3 compounds and their reported IC50.
>  <Chemical Smiles>
CCCS(=O)(=O)c1ccc(OC)c(-n2nc(C)c3cnc(-c4cnn5cccnc45)cc32)c1

>  <Experimental Target>
UniProtKB P23458

>  <IC50>
0.00501 to 0.0501 µM

$$$$
>  <Chemical Smiles>
Cc1nn(-c2cc(S(=O)(=O)CCN3CCCCC3)ccc2OC(F)F)c2cc(-c3cnn4cccnc34)ncc12

>  <Experimental Target>
UniProtKB P23458

>  <IC50>
0.00501 to 0.0501 µM

$$$$
>  <Chemical Smiles>
COc1ccc(S(=O)(=O)NCCO)cc1-n1nc(C)c2cnc(Nc3ncc[nH]c3=O)cc21

>  <Experimental Target>
UniProtKB P23458

>  <IC50>
0.00501 to 0.0501 µM

$$$$

Now turn to the next compound.
Recorded IC50 of CC(=O)N1CCC(Sc2ccc(OC(F)F)c(-n3nc(C)c4cnc(-c5cnn6cccnc56)cc43)c2)CC1 , please.
0.00501 to 0.0501 µM

---

Experimental Target: JAK 1 (Homo sapiens, UniProt P23458)
Sequence (P23458 whole entry): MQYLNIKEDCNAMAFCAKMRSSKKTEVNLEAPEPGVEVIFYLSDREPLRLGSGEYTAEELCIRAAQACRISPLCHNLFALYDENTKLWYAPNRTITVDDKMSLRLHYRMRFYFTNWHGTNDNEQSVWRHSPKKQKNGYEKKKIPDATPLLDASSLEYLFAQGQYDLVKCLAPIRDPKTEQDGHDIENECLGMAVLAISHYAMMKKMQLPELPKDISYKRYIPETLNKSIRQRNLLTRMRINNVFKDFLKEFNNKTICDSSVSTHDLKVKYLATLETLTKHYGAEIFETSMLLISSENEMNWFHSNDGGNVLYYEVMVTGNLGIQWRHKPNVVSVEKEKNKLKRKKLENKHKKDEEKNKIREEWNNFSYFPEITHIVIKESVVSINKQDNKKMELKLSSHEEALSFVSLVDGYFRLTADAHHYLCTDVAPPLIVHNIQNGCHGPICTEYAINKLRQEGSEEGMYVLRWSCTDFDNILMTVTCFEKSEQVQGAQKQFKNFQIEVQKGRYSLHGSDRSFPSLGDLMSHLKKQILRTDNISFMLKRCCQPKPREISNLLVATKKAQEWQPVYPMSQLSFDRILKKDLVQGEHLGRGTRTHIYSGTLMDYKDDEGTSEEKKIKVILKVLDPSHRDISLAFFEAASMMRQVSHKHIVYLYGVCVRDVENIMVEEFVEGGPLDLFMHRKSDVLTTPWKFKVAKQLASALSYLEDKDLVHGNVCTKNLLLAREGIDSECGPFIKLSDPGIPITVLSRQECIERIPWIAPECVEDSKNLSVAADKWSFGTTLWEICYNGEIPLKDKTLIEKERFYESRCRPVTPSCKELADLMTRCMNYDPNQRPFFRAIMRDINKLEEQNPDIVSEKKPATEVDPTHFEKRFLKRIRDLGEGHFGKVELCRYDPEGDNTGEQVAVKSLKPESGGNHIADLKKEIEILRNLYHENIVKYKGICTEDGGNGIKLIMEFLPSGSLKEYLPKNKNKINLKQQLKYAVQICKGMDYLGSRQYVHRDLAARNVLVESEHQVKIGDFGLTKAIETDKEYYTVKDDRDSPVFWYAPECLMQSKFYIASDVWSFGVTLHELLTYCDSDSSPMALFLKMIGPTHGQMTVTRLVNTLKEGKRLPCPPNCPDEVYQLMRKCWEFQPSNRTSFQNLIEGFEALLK
Experiment Summary: Biochemical potency on JAK1, TR-FRET LANCE Ultra kinase assay (examples 1-99)
Condition Parameters: ATP at Km (20 μM), read-out: JAK1 inhibitory activity (pIC50 class) (converted)
Value Kind: IC50

>  <Chemical Smiles>
CNCc1nn(-c2cc(Cl)ccc2OC(F)F)c2cc(-c3cnn4cccnc34)ncc12

>  <Readout Value>
5.01 to 50.1 nM

$$$$

Now turn to the next compound.
# get_value(readout= IC50, system= JAK 1 (Homo sapiens, UniProt P23458)) for Cc1nn(-c2cc(S(C)(=O)=O)ccc2OC(F)F)c2cc(-c3cnn4cccnc34)ncc12
≤ 5.01 nM

---

Experimental Target: JAK 2 (Homo sapiens, UniProt O60674)
Sequence (O60674 whole entry): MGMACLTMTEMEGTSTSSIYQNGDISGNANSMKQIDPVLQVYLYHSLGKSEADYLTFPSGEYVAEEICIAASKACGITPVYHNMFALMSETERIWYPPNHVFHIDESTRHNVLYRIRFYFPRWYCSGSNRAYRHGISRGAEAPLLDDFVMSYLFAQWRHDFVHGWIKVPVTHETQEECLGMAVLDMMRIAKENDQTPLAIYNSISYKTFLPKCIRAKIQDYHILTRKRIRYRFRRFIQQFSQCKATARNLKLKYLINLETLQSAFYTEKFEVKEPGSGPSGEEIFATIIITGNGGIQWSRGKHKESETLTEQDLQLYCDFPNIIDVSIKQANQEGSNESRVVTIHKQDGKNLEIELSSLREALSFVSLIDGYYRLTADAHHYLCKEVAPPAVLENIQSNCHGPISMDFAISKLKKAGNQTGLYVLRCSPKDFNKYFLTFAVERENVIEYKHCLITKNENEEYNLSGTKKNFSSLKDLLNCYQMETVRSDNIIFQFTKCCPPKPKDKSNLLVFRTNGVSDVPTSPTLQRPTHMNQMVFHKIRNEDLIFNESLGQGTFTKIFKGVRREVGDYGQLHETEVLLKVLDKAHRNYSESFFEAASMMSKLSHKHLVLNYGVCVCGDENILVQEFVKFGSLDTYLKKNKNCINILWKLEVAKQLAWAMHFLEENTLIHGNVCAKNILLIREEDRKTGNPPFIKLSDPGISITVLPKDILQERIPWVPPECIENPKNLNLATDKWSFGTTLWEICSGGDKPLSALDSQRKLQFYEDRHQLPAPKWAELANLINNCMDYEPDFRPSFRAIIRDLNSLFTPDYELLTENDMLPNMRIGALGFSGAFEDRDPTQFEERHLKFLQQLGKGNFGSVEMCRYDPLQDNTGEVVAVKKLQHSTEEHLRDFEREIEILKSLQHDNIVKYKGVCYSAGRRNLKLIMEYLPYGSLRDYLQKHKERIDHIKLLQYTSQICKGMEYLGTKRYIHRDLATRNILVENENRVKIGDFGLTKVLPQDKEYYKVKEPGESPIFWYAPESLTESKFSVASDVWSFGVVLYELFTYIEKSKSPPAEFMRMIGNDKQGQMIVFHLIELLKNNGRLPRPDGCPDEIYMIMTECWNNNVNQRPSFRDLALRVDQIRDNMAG
Experiment Summary: Biochemical potency on JAK2, TR-FRET LANCE Ultra kinase assay (examples 1-99)
Condition Parameters: ATP at Km (0.7 μM), read-out: JAK2 inhibitory activity (pIC50 class) (converted)
Value Kind: IC50

Below: 3 compounds and their reported IC50.
>  <Chemical Smiles>
CSc1ccc(OC(F)F)c(-n2nc(C(=O)NCCCN(C)C)c3cnc(-c4cnn5cccnc45)cc32)c1

>  <IC50>
≤ 5.01 nM

$$$$
>  <Chemical Smiles>
COc1ccc(S(=O)(=O)NCCN2CCOCC2)cc1-n1nc(C)c2cnc(-c3cnn4cccnc34)cc21

>  <IC50>
5.01 to 50.1 nM

$$$$
>  <Chemical Smiles>
Cc1nn(-c2cc(SC3CCOCC3)ccc2OC(F)F)c2cc(-c3cnn4cccnc34)ncc12

>  <IC50>
5.01 to 50.1 nM

$$$$

Recorded IC50 of COc1ccc(F)cc1-n1nc(C)c2cnc(Nc3ncc[nH]c3=O)cc21 , please.
≤ 5.01 nM

Recorded IC50 of Cc1nn(-c2cc(SC3CCNCC3)ccc2OC(F)F)c2cc(-c3cnn4cccnc34)ncc12 , please.
5.01 to 50.1 nM

Recorded IC50 of Cc1nn(-c2cc(Cl)ccc2O)c2cc(-c3cnn4cccnc34)ncc12 , please.
≤ 5.01 nM

Recorded IC50 of CCCS(=O)(=O)c1ccc(OC)c(-n2nc(C)c3cnc(-c4cnn5cccnc45)cc32)c1 , please.
5.01 to 50.1 nM

Recorded IC50 of COc1cc(O)ccc1-n1nc(C)c2cnc(-c3cnn4cccnc34)cc21 , please.
≤ 5.01 nM
